B1: FBXO3 (parent)
chain: GGFPIIRDQIFRYVHDPECVATTG

# Variants of: B1
# test-method-notes: protein stability index of a GFP-peptide fusion (GPS, HEK-293T) (PSI 1-6); higher = more stable;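 also: lentivirally expressed fusions sorted by FACS into six bins by GFP to DsRed ratio, PSI derived from sequencing read proportions per bin multiplied by bin number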
# experimental-setup: c terminus: a fixed tail appended
assay-readout: protein stability index

Solved entries:
[
  {
    "sequence-text": "GGLPIIRDQIFRYVHDPECVATTG [F3L]",
    "reported": 1.94
  },
  {
    "sequence-text": "GGFPIIRDQIFRYKHDPECVATTG [V14K]",
    "reported": 2.83
  },
  {
    "sequence-text": "GGFPIIRDQIFVYVHDPECVATTG [R12V]",
    "reported": 1.22
  },
  {
    "sequence-text": "CGFPIIRDQIFRYVHDPECVATTG [G1C]",
    "reported": 1.21
  },
  {
    "sequence-text": "GGFPIIRQQIFRYVHDPECVATTG [D8Q]",
    "reported": 1.7
  }
]

For each entry beneath this line, provide reported protein stability index.
1. GSFPIIRDQIFRYVHDPECVATTG [G2S]
2. GGFPIIRDQIFPYVHDPECVATTG [R12P]
3. GGFPIIRDQIFRYVHDPECVATTM [G24M]
4. GGAPIIRDQIFRYVHDPECVATTG [F3A]

Reply |
1.76
2.82
1.33
3.13

Give measured protein stability index for every item shown.
1. GGFPIIRDQIFRYVHDPICVATTG [E18I]
2. GGFPIIRDQIFRHVHDPECVATTG [Y13H]
3. GGFPIIRDQIFRYVHDPECVALTG [T22L]
4. GGFPIIRDQIFRYVHDPEKVATTG [C19K]
5. GGFPIICDQIFRYVHDPECVATTG [R7C]
6. GGFPIIRDQIFRYVHDPEAVATTG [C19A]
7. GGFPIIRDQIFRYVHDPECVAFTG [T22F]
8. GGFPIIDDQIFRYVHDPECVATTG [R7D]

Reply |
1. 1.92
2. 2.28
3. 1.83
4. 1.78
5. 2.35
6. 1.6
7. 1.67
8. 3.92

Would you mind listing protein stability index for each of the following variants?
1. GGFPIIRDQIFRYVHDPECVATLG [T23L]
2. GGFPIIRDQIFQYVHDPECVATTG [R12Q]

Reply |
1: 1.57; 2: 2.79

Documented protein stability index of GGFPIIRDDIFRYVHDPECVATTG [Q9D] : 2.83

This collection of values is drawn from the supplement of paper PMC10567573.
